test: in vitro; settings: human, huvec
Description: Cytotoxicity against HUVEC cells assessed as inhibition of cell growth incubated for 72 hrs by MTT assay
quantity: IC50 at 72 h (µM)
Give the value in µM but do not write µM after it.

So what does the record say about IC50 at 72 h for `C=CC(=O)N1CC[C@@H](n2nc(C#Cc3cc(OC)cc(OC)c3)c3c(N)ncnc32)C1` ? 63.6

====

experiment: Metabolic stability in rat liver microsomes assessed as parent compound remaining at 1 uM measured after 5 mins by LC-MS/MS analysis; format: ADME, Microsome; conditions: read-out: Stability
quantity: remaining at 5 min, 1 µM (%)
Give the value in % but do not write % after it.

O=C(c1ccc(F)cc1)C1CCN(CCn2c(=O)[nH]c3ccccc3c2=O)CC1 [KETANSERIN]; 76.3

// below: remaining at 5 min, 1 µM requested for another compound
So what does the record say about remaining at 5 min, 1 µM for `C=CC(=O)Nc1ccc(Cn2cnc3c(-c4cc(OC)cc(OC)c4)ncnc32)cc1` ? 73.4

====

List of IC50 values.
test system: HepG2; experiment: cells; conditions: Homo sapiens, HepG2, 72 h
Give the value in µM but do not write µM after it.

# example entries with known answers
C=CC(=O)Nc1cc(Cn2ccc3c(Cl)ncnc32)ccc1F; 26.8
C=CC(=O)Nc1ccc(Cn2cnc3c(-c4cccs4)ncnc32)cc1; 11.1
CC(C)C(=O)Nc1ccc(Cn2cnc3c(Cl)ncnc32)cc1; 27.6
C=CC(=O)Nc1cc(Cn2ncc3ccc(Br)cc32)ccc1F; 16.4
C=CC(=O)Nc1cc(Cn2cnc3ccc(Cl)nc32)ccc1F; 24.7

So what does the record say about IC50 for `C=CC(=O)Nc1cc(Cn2cnc3c(Cl)ncnc32)ccc1F` ? 15.7

So what does the record say about IC50 for `C=CC(=O)Nc1ccc(Cn2cnc3c(-c4cc(OC)cc(OC)c4)ncnc32)cc1` ? 7.93

====

List of half-life at 1 µM values.
test: Metabolic stability in rat liver microsomes assessed as half-life at 1 uM incubated for 45 mins by LC-MS/MS analysis; type: ADME, Microsome
Give the value in min but do not write min after it.

O=C(c1ccc(F)cc1)C1CCN(CCn2c(=O)[nH]c3ccccc3c2=O)CC1; 13.2

// below: half-life at 1 µM requested for another compound
So what does the record say about half-life at 1 µM for `C=CC(=O)Nc1ccc(Cn2cnc3c(-c4cc(OC)cc(OC)c4)ncnc32)cc1` ? 15.9

====

List of half-life at 1 µM values.
assay: Metabolic stability in mouse liver microsomes assessed as half-life at 1 uM incubated for 45 mins by LC-MS/MS analysis; type: ADME, Microsome
# answer = value followed by unit

So what does the record say about half-life at 1 µM for `C=CC(=O)Nc1ccc(Cn2cnc3c(-c4cc(OC)cc(OC)c4)ncnc32)cc1` ? 12.9 min

So what does the record say about half-life at 1 µM for `O=C(c1ccc(F)cc1)C1CCN(CCn2c(=O)[nH]c3ccccc3c2=O)CC1` ? 9.35 min

====

experiment: Metabolic stability in mouse liver microsomes assessed as parent compound remaining at 1 uM measured after 5 mins by LC-MS/MS analysis; type: ADME, Microsome; details: read-out: Stability
quantity: remaining at 5 min, 1 µM (%)
Give the value in % but do not write % after it.

C=CC(=O)Nc1ccc(Cn2cnc3c(-c4cc(OC)cc(OC)c4)ncnc32)cc1; 61.5

// below: remaining at 5 min, 1 µM requested for another compound
So what does the record say about remaining at 5 min, 1 µM for `O=C(c1ccc(F)cc1)C1CCN(CCn2c(=O)[nH]c3ccccc3c2=O)CC1` ? 70.3

====

system: MDA-MB-231; test: cells; details: Homo sapiens, MDA-MB-231, 72 h
quantity: IC50 (µM)
Give the value in µM but do not write µM after it.

C=CC(=O)Nc1ccc(Cn2cnc3c(Cl)ncnc32)cc1; 2.64
C=CC(=O)Nc1cc(Cn2cnc3c(Cl)ncnc32)ccc1F; 10.1
C=C(C)C(=O)Nc1ccc(Cn2cnc3c(Cl)ncnc32)cc1; 66.3
C=CC(=O)Nc1cc(Cn2ncc3ccc(Br)cc32)ccc1F; 29.7
C=CC(=O)Nc1cc(Cn2ccc3ncnc(Cl)c32)ccc1F; 40.3

So what does the record say about IC50 for `O=C(CCl)Nc1ccc(Cn2cnc3c(Cl)ncnc32)cc1` ? 21.2

So what does the record say about IC50 for `C=CC(=O)Nc1cc(Cn2ccc3c(Cl)ncnc32)ccc1F` ? 29.3

So what does the record say about IC50 for `C=CC(=O)Nc1cc(Cn2ncc3ccncc32)ccc1F` ? 9.15

So what does the record say about IC50 for `C=CC(=O)Nc1cc(Cn2ccc3ccc(Br)cc32)ccc1F` ? 7.21

So what does the record say about IC50 for `C=CC(=O)Nc1ccc(C(=O)n2ncc3ccc(Br)cc32)cc1` ? 40

====

assay: Metabolic stability in mouse liver microsomes assessed as parent compound remaining at 1 uM measured after 15 mins by LC-MS/MS analysis; assay type: ADME, Microsome; details: read-out: Stability
quantity: remaining at 0.25 h, 1 µM (%)
Give the value in % but do not write % after it.

O=C(c1ccc(F)cc1)C1CCN(CCn2c(=O)[nH]c3ccccc3c2=O)CC1 [KETANSERIN]; 38.3

So what does the record say about remaining at 0.25 h, 1 µM for `C=CC(=O)Nc1ccc(Cn2cnc3c(-c4cc(OC)cc(OC)c4)ncnc32)cc1` ? 27.2

====

List of remaining at 5 min, 1 µM values.
assay: Metabolic stability in human liver microsomes assessed as parent compound remaining at 1 uM measured after 5 mins by LC-MS/MS analysis; format: ADME, Microsome; settings: read-out: Stability
Give the value in % but do not write % after it.

C=CC(=O)Nc1ccc(Cn2cnc3c(-c4cc(OC)cc(OC)c4)ncnc32)cc1; 85

// below: remaining at 5 min, 1 µM requested for another compound
So what does the record say about remaining at 5 min, 1 µM for `O=C(c1ccc(F)cc1)C1CCN(CCn2c(=O)[nH]c3ccccc3c2=O)CC1` ? 84.7

====

biological target: Fibroblast growth factor receptor 2 (Homo sapiens)
Sequence (P21802 whole entry): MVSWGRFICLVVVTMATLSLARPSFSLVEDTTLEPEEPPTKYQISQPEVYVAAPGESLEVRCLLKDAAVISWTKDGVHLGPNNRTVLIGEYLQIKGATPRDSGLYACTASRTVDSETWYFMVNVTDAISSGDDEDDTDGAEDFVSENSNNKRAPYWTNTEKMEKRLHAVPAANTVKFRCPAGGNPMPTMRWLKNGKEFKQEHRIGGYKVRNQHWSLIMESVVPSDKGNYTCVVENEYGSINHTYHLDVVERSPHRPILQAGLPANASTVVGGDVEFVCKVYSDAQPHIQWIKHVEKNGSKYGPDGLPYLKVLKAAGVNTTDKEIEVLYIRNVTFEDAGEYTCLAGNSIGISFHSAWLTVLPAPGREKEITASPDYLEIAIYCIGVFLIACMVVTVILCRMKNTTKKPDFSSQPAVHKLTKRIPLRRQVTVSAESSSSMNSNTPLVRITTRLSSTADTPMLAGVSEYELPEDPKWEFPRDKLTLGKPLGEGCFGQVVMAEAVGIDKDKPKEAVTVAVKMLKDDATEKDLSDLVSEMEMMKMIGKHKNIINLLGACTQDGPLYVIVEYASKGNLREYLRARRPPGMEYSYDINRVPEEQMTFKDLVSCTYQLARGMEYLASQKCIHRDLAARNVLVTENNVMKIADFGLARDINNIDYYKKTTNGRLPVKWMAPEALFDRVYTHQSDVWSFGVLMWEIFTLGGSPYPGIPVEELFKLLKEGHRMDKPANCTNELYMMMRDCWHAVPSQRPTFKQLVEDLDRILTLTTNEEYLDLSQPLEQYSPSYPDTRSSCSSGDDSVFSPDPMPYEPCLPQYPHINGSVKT
quantity: pIC50
Answer as the number alone; pIC50 is minus log10 of concentration in mol/L.

Recall the recorded pIC50 for `C=CC(=O)Nc1ccc(Cn2cnc3c(-c4cc(OC)cc(OC)c4)ncnc32)cc1` with Fibroblast growth factor receptor 2 (Homo sapiens) and state it. 9.05

====

assay: Metabolic stability in rat liver microsomes assessed as intrinsic clearance at 1 uM incubated for 45 mins by LC-MS/MS analysis; format: ADME, Microsome; details: read-out: CLH
quantity: CLint scaled at 1 µM
# answer = value followed by unit

C=CC(=O)Nc1ccc(Cn2cnc3c(-c4cc(OC)cc(OC)c4)ncnc32)cc1; 156 mL/min/kg

So what does the record say about CLint scaled at 1 µM for `O=C(c1ccc(F)cc1)C1CCN(CCn2c(=O)[nH]c3ccccc3c2=O)CC1` ? 188 mL/min/kg

====

List of remaining at 0.5 h, 1 µM values.
assay: Metabolic stability in human liver microsomes assessed as parent compound remaining at 1 uM measured after 30 mins by LC-MS/MS analysis; format: ADME, Microsome; settings: read-out: Stability
Give the value in % but do not write % after it.

C=CC(=O)Nc1ccc(Cn2cnc3c(-c4cc(OC)cc(OC)c4)ncnc32)cc1; 43.7

// below: remaining at 0.5 h, 1 µM requested for another compound
So what does the record say about remaining at 0.5 h, 1 µM for O=C(c1ccc(F)cc1)C1CCN(CCn2c(=O)[nH]c3ccccc3c2=O)CC1 [KETANSERIN] ? 55.1

====

List of remaining at 0.25 h, 1 µM values.
experiment: Metabolic stability in rat liver microsomes assessed as parent compound remaining at 1 uM measured after 15 mins by LC-MS/MS analysis; type: ADME, Microsome; conditions: read-out: Stability

O=C(c1ccc(F)cc1)C1CCN(CCn2c(=O)[nH]c3ccccc3c2=O)CC1; 48.5%

// below: remaining at 0.25 h, 1 µM requested for another compound
So what does the record say about remaining at 0.25 h, 1 µM for `C=CC(=O)Nc1ccc(Cn2cnc3c(-c4cc(OC)cc(OC)c4)ncnc32)cc1` ? 40%

====

List of CLint scaled at 1 µM values.
assay: Metabolic stability in human liver microsomes assessed as intrinsic clearance at 1 uM incubated for 45 mins by LC-MS/MS analysis; format: ADME, Microsome; conditions: read-out: CLH
Give the value in mL/min/kg but do not write mL/min/kg after it.

C=CC(=O)Nc1ccc(Cn2cnc3c(-c4cc(OC)cc(OC)c4)ncnc32)cc1; 42

So what does the record say about CLint scaled at 1 µM for `O=C(c1ccc(F)cc1)C1CCN(CCn2c(=O)[nH]c3ccccc3c2=O)CC1` ? 60.8

====

test: Metabolic stability in human liver microsomes assessed as parent compound remaining at 1 uM measured after 45 mins by LC-MS/MS analysis; format: ADME, Microsome; settings: read-out: Stability
List of remaining at 0.75 h, 1 µM values.

O=C(c1ccc(F)cc1)C1CCN(CCn2c(=O)[nH]c3ccccc3c2=O)CC1; 45.9%

// below: remaining at 0.75 h, 1 µM requested for another compound
So what does the record say about remaining at 0.75 h, 1 µM for `C=CC(=O)Nc1ccc(Cn2cnc3c(-c4cc(OC)cc(OC)c4)ncnc32)cc1` ? 33.8%
